target: Oxoeicosanoid receptor 1 (Homo sapiens); test: Agonist activity at OXE receptor (unknown origin) expressed in HEK293 cells co-expressing Galpha subunit G16 assessed as calcium mobilization using Oregon Green 488 BAPTA-1/AM by fluorescence assay
Sequence (Q8TDS5 whole entry): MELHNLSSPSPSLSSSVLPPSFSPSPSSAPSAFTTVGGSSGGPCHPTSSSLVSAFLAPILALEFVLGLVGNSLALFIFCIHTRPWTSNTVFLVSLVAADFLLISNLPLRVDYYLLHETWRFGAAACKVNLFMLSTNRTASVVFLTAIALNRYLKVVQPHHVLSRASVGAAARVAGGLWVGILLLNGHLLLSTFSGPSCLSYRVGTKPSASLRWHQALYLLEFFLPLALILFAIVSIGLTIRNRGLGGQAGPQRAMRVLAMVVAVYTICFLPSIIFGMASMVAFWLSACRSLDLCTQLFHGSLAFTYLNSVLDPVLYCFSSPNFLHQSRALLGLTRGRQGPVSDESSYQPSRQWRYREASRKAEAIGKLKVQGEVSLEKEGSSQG
result.type: EC50 (nM)
Give bare numbers, in nM.

Q: Identify measured EC50 corresponding to CCCCC/C=C\C/C=C\C/C=C\C=C\C(=O)CCCC(=O)O [5-OXO-ETE]
Result: 67
